system: 855422-203-R-J1-PDC complex spheroid viability; experiment: Anticancer human tumor 855422-203-R-J1-PDC patient-derived bladder carcinoma cell line growth inhibition [POLQ]; settings: second compound 1 µM; first compound 0.0316 µM; stronger effect = lower value
Measured Metric: viability, T/C (%)
Supply the numeric figure in %, leaving out any unit text.

molecule="CCCS(=O)(=O)Nc1ccc(F)c(C(=O)c2c[nH]c3ncc(-c4ccc(Cl)cc4)cc23)c1F + Nc1ccc(C#CCN(C(=O)Cc2ncc(C(F)(F)F)cc2C(F)(F)F)c2ccc(F)cc2)nn1" measured_metric="viability, T/C" measure_unit=% meas_value=106

Query: Consider the molecule shown here: COc1cc2cc(C(=O)CCC(=O)O)sc2cc1OC + Cc1cccc(N(C)C(=O)C2C(O)CCN2c2nc(C)cc(C(F)(F)F)c2C#N)c1 What is its recorded viability, T/C?
Reply: 85.4

Query: Consider the molecule shown here: COc1cccc2c1C(=O)c1c(O)c3c(c(O)c1C2=O)CC(O)(C(=O)CO)CC3OC1CC(N)C(O)C(C)O1 (stereo not drawn) + Nc1ccc(C#CCN(C(=O)Cc2ncc(C(F)(F)F)cc2C(F)(F)F)c2ccc(F)cc2)nn1 What is its recorded viability, T/C?
Reply: 24.3

* * *

tested on: 855422-203-R-J1-PDC complex spheroid viability; experiment: Anticancer human tumor 855422-203-R-J1-PDC cell line growth inhibition [POLQ]; conditions: second compound 1 µM; first compound 0.0316 µM; stronger effect = lower value;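 also: spheroids exposed to compounds for seven days before readout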
Measured Metric: viability, T/C (%)
Supply the numeric figure in %, leaving out any unit text.

Completed entries (count: 3):
molecule="CCc1cc2c(N3CCc4c(cc(Cn5ccnc5)cc4-c4cn(C)nc4C(F)(F)F)C3=O)cc(C)nc2c(OC)n1 + Nc1ccc(C#CCN(C(=O)Cc2ncc(C(F)(F)F)cc2C(F)(F)F)c2ccc(F)cc2)nn1" measured_metric="viability, T/C" meas_value=111
molecule="COc1cc2cc(C(=O)CCC(=O)O)sc2cc1OC + Nc1ccc(C#CCN(C(=O)Cc2ncc(C(F)(F)F)cc2C(F)(F)F)c2ccc(F)cc2)nn1" measured_metric="viability, T/C" meas_value=86.8
molecule="O=c1[nH]cc(F)c(=O)[nH]1 + COC1C(OC(N)=O)C(O)C(Oc2ccc3c(O)c(NC(=O)c4ccc(O)c(CC=C(C)C)c4)c(=O)oc3c2C)OC1(C)C" measured_metric="viability, T/C" meas_value=118

Query: Consider the molecule shown here: CC1COCCN1c1cc(-c2ccnn2C)c2ccnc(-c3ccn[nH]3)c2n1 (stereo not given) + Nc1ccc(C#CCN(C(=O)Cc2ncc(C(F)(F)F)cc2C(F)(F)F)c2ccc(F)cc2)nn1 What is its recorded viability, T/C?
Reply: 119

* * *

system: 855422-203-R-J1-PDC complex spheroid viability; test: Anticancer human tumor 855422-203-R-J1-PDC cell line growth inhibition [POLQ]; details: second compound 10 µM; first compound 1 µM; stronger effect = lower value;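 also: spheroids exposed to compounds for seven days before readout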
// reported viability, T/C per item
Supply the numeric figure in %, leaving out any unit text.

compound="CC(C)n1c(=O)n(C)c2cnc3cc(F)c(-c4ccc(OCCCN5CCCCC5)nc4)cc3c21 + COC1C(OC(N)=O)C(O)C(Oc2ccc3c(O)c(NC(=O)c4ccc(O)c(CC=C(C)C)c4)c(=O)oc3c2C)OC1(C)C" meas_value=98.1
compound="O=c1[nH]cc(F)c(=O)[nH]1 + COC1C(OC(N)=O)C(O)C(Oc2ccc3c(O)c(NC(=O)c4ccc(O)c(CC=C(C)C)c4)c(=O)oc3c2C)OC1(C)C" meas_value=35.3
compound="CC1COCCN1c1cc(C2(O)CC3CCC(C2)O3)c2cnn(-c3ccn[nH]3)c2n1 (stereo not given) + COC1C(OC(N)=O)C(O)C(Oc2ccc3c(O)c(NC(=O)c4ccc(O)c(CC=C(C)C)c4)c(=O)oc3c2C)OC1(C)C" meas_value=8.17
compound="COc1cccc(OCCCN)c1-c1cc(Nc2cnc(C#N)cn2)n[nH]1 + Nc1ccc(C#CCN(C(=O)Cc2ncc(C(F)(F)F)cc2C(F)(F)F)c2ccc(F)cc2)nn1" meas_value=7.4
compound="CCCS(=O)(=O)Nc1ccc(F)c(C(=O)c2c[nH]c3ncc(-c4ccc(Cl)cc4)cc23)c1F + Cc1cccc(N(C)C(=O)C2C(O)CCN2c2nc(C)cc(C(F)(F)F)c2C#N)c1" meas_value=180

Next compound, please.
Query: Consider the compound shown here: COc1cc(C2c3cc4c(cc3C(OC3OC5COC(C)OC5C(O)C3O)C3COC(=O)C23)OCO4)cc(OC)c1O (stereo not given) + COC1C(OC(N)=O)C(O)C(Oc2ccc3c(O)c(NC(=O)c4ccc(O)c(CC=C(C)C)c4)c(=O)oc3c2C)OC1(C)C What is its recorded viability, T/C?
Reply: 12.9

* * *

tested on: 855422-203-R-J1-PDC complex spheroid viability; assay: Anticancer human tumor 855422-203-R-J1-PDC cell line growth inhibition [POLQ]; conditions: second compound 0.1 µM; first compound 3.16 µM; stronger effect = lower value;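 also: spheroids exposed to compounds for seven days before readout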
So basically: is viability, T/C under 90%? Then label 1. Not under? Then label 0.

compound="COc1ccc([C@@H](O)c2cc(-c3ncnc4cc(N5CCOCC5)ccc34)c(F)cc2Cl)nn1 + Cc1cccc(N(C)C(=O)C2C(O)CCN2c2nc(C)cc(C(F)(F)F)c2C#N)c1" label_class="label 1"

Next, consider the following compound.
Query: Check if viability, T/C falls below 90% for C#Cc1c(F)ccc2cc(O)cc(-c3ncc4c(N5CC6CCC(C5)N6)nc(OCC56CCCN5CC(F)C6)nc4c3F)c12 (stereo unspecified) + Nc1ccc(C#CCN(C(=O)Cc2ncc(C(F)(F)F)cc2C(F)(F)F)c2ccc(F)cc2)nn1 .
Reply: label 0

* * *

// reported viability, T/C per item
system: 855422-203-R-J1-PDC complex spheroid viability; test: Anticancer human tumor 855422-203-R-J1-PDC cell line growth inhibition [POLQ]; details: second compound 0.0316 µM; first compound 0.01 µM; stronger effect = lower value;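 also: spheroids exposed to compounds for seven days before readout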
Supply the numeric figure in %, leaving out any unit text.

Completed entries (count: 3):
compound="CCc1c2c(nc3ccc(O)cc13)-c1cc3c(c(=O)n1C2)COC(=O)[C@]3(O)CC + COC1C(OC(N)=O)C(O)C(Oc2ccc3c(O)c(NC(=O)c4ccc(O)c(CC=C(C)C)c4)c(=O)oc3c2C)OC1(C)C" measured_metric="viability, T/C" meas_value=16.8
compound="Cn1ncnc1[C@H]1c2n[nH]c(=O)c3cc(F)cc(c23)N[C@@H]1c1ccc(F)cc1 + COC1C(OC(N)=O)C(O)C(Oc2ccc3c(O)c(NC(=O)c4ccc(O)c(CC=C(C)C)c4)c(=O)oc3c2C)OC1(C)C" measured_metric="viability, T/C" meas_value=106
compound="CC[C@@]1(O)C(=O)OCc2c1cc1n(c2=O)Cc2cc3c(CN(C)C)c(O)ccc3nc2-1 + Nc1ccc(C#CCN(C(=O)Cc2ncc(C(F)(F)F)cc2C(F)(F)F)c2ccc(F)cc2)nn1" measured_metric="viability, T/C" meas_value=89.6

Query: Consider the compound shown here: COc1cccc(OCCCN)c1-c1cc(Nc2cnc(C#N)cn2)n[nH]1 + COC1C(OC(N)=O)C(O)C(Oc2ccc3c(O)c(NC(=O)c4ccc(O)c(CC=C(C)C)c4)c(=O)oc3c2C)OC1(C)C What is its recorded viability, T/C?
Reply: 90

Query: Consider the compound shown here: Cn1ncnc1[C@H]1c2n[nH]c(=O)c3cc(F)cc(c23)N[C@@H]1c1ccc(F)cc1 + Cc1cccc(N(C)C(=O)C2C(O)CCN2c2nc(C)cc(C(F)(F)F)c2C#N)c1 What is its recorded viability, T/C?
Reply: 108

* * *

system: 855422-203-R-J1-PDC complex spheroid viability; assay: Anticancer human tumor 855422-203-R-J1-PDC cell line growth inhibition [POLQ]; conditions: second compound 3.16 µM; first compound 0.000316 µM; stronger effect = lower value;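 also: spheroids exposed to compounds for seven days before readout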
// reported viability, T/C per item

molecule="Cn1ncnc1[C@H]1c2n[nH]c(=O)c3cc(F)cc(c23)N[C@@H]1c1ccc(F)cc1 + Nc1ccc(C#CCN(C(=O)Cc2ncc(C(F)(F)F)cc2C(F)(F)F)c2ccc(F)cc2)nn1" measured_metric="viability, T/C" meas_value=92%
molecule="CC[C@@]1(O)C(=O)OCc2c1cc1n(c2=O)Cc2cc3c(CN(C)C)c(O)ccc3nc2-1 + COC1C(OC(N)=O)C(O)C(Oc2ccc3c(O)c(NC(=O)c4ccc(O)c(CC=C(C)C)c4)c(=O)oc3c2C)OC1(C)C" measured_metric="viability, T/C" meas_value=112%
molecule="CC[C@@]1(O)C(=O)OCc2c1cc1n(c2=O)Cc2cc3c(CN(C)C)c(O)ccc3nc2-1 + Nc1ccc(C#CCN(C(=O)Cc2ncc(C(F)(F)F)cc2C(F)(F)F)c2ccc(F)cc2)nn1" measured_metric="viability, T/C" meas_value=92.8%
molecule="Cn1ncnc1[C@H]1c2n[nH]c(=O)c3cc(F)cc(c23)N[C@@H]1c1ccc(F)cc1 + COC1C(OC(N)=O)C(O)C(Oc2ccc3c(O)c(NC(=O)c4ccc(O)c(CC=C(C)C)c4)c(=O)oc3c2C)OC1(C)C" measured_metric="viability, T/C" meas_value=105%
molecule="Cn1ncnc1[C@H]1c2n[nH]c(=O)c3cc(F)cc(c23)N[C@@H]1c1ccc(F)cc1 + Cc1cccc(N(C)C(=O)C2C(O)CCN2c2nc(C)cc(C(F)(F)F)c2C#N)c1" measured_metric="viability, T/C" meas_value=98.6%

Next molecule, please.
Query: Consider the molecule shown here: CC[C@@]1(O)C(=O)OCc2c1cc1n(c2=O)Cc2cc3c(CN(C)C)c(O)ccc3nc2-1 + Cc1cccc(N(C)C(=O)C2C(O)CCN2c2nc(C)cc(C(F)(F)F)c2C#N)c1 What is its recorded viability, T/C?
Reply: 102%
